// pKi lookup, one value per entry
Molecular target: porcine pancreatic α-amylase (Sus scrofa)
Test: Continuous α-amylase activity assay (starch hydrolysis) by ITC
Type: biochemical
Conditions: 100 µM flavan-3-ol, inj. 2; read-out: Kiu
pKi: −log10 of the molar value.

COMPOUND	pKi
Oc1cc(O)c2c(c1)O[C@H](c1ccc(O)c(O)c1)[C@H](O)[C@H]2c1c(O)cc(O)c2c1O[C@H](c1ccc(O)c(O)c1)[C@@H](O)C2	3.68
Oc1cc(O)c2c(c1)O[C@H](c1ccc(O)c(O)c1)[C@H](O)[C@H]2c1c(O)cc(O)c2c1O[C@H](c1ccc(O)c(O)c1)[C@H](O)[C@H]2c1c(O)cc(O)c2c1O[C@H](c1ccc(O)c(O)c1)[C@H](O)C2	3.99
Oc1cc(O)c2c(c1)O[C@H](c1ccc(O)c(O)c1)[C@H](O)[C@H]2c1c(O)cc(O)c2c1O[C@H](c1ccc(O)c(O)c1)[C@H](O)C2	3.71
Oc1cc(O)c2c(c1)O[C@H](c1ccc(O)c(O)c1)[C@H](O)C2 [EC, (−)-Epicatechin]	3.41
Oc1cc(O)c2c(c1)O[C@H](c1ccc(O)c(O)c1)[C@@H](O)C2 [CAT, (+)-Catechin]	3.39

----------
Biological target: UniProt:P00690
Sequence (P00690 16-511): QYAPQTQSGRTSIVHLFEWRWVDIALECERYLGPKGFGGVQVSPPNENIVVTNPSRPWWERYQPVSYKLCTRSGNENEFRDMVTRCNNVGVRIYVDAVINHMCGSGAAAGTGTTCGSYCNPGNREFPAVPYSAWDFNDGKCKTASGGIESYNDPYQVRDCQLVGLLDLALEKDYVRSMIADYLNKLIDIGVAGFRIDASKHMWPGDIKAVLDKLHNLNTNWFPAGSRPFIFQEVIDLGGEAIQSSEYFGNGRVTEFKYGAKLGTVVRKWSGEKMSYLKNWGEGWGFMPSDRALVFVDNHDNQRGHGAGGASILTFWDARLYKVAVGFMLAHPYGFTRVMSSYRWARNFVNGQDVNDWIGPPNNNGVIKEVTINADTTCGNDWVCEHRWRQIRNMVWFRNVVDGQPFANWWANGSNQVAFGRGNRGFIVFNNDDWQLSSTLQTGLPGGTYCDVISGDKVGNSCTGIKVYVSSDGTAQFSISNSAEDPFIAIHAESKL
Assay: Continuous α-amylase activity assay (starch hydrolysis) by ITC
Format: biochemical
Conditions: 100 µM flavan-3-ol, inj. 3; read-out: Kic
Protocol: Without rebuffering, α-amylase was diluted each day with 0.1 M phosphate buffer/0.04 M NaCl to a final dilution of 1:1000 and stored at 4 °C. […] The release of heat during the conversion of starch was monitored, and calculations were performed using Microsoft Excel software. The detected thermal power is directly proportional to the enzymatic rate (v0) (eq 1 and 2).[40],[41] […]
pKi: −log10 of the molar value.
Known pKi of a selection of compounds

COMPOUND	pKi
Oc1cc(O)c2c(c1)O[C@H](c1ccc(O)c(O)c1)[C@H](O)[C@H]2c1c(O)cc(O)c2c1O[C@H](c1ccc(O)c(O)c1)[C@H](O)C2 [PC B2, procyanidin B2]	3.69
Oc1cc(O)c2c(c1)O[C@H](c1ccc(O)c(O)c1)[C@H](O)C2 [EC, (−)-Epicatechin]	3.54
Oc1cc(O)c2c(c1)O[C@H](c1ccc(O)c(O)c1)[C@H](O)[C@H]2c1c(O)cc(O)c2c1O[C@H](c1ccc(O)c(O)c1)[C@@H](O)C2 [PC B1, procyanidin B1]	3.27
Oc1cc(O)c2c(c1)O[C@H](c1ccc(O)c(O)c1)[C@@H](O)C2 [CAT, (+)-Catechin]	3.34
Oc1cc(O)c2c(c1)O[C@H](c1ccc(O)c(O)c1)[C@H](O)[C@H]2c1c(O)cc(O)c2c1O[C@H](c1ccc(O)c(O)c1)[C@H](O)[C@H]2c1c(O)cc(O)c2c1O[C@H](c1ccc(O)c(O)c1)[C@H](O)C2 [PC C1, procyanidin C1]	3.40

----------
// IC50 lookup, one value per entry
Target: porcine pancreatic α-amylase (Sus scrofa, UniProt P00690)
Sequence (P00690 16-511): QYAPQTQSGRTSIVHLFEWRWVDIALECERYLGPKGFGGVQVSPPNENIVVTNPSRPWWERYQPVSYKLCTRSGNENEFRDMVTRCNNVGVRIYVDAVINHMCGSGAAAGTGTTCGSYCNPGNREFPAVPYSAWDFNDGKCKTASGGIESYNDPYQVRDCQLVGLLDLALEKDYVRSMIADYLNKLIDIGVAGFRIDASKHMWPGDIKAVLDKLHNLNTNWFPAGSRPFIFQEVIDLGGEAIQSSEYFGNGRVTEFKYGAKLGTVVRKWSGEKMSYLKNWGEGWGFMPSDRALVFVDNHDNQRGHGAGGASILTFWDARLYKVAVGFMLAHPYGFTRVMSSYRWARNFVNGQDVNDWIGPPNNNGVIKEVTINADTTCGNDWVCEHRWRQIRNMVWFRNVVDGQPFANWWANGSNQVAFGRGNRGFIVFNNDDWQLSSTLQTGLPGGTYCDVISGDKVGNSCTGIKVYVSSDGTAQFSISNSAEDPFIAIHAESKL

COMPOUND	IC50 / µM
Oc1cc(O)c2c(c1)O[C@H](c1ccc(O)c(O)c1)[C@@H](O)C2 [CAT, (+)-Catechin]	431
Oc1cc(O)c2c(c1)O[C@H](c1ccc(O)c(O)c1)[C@H](O)[C@H]2c1c(O)cc(O)c2c1O[C@H](c1ccc(O)c(O)c1)[C@H](O)[C@H]2c1c(O)cc(O)c2c1O[C@H](c1ccc(O)c(O)c1)[C@H](O)C2	103

----------
Catalogue of Ki values
Target: porcine pancreatic α-amylase (Sus scrofa)
Experiment: Continuous α-amylase activity assay (starch hydrolysis) by ITC
Format: biochemical
Settings: 100 µM flavan-3-ol, inj. 2; read-out: Kic
Procedure: Without rebuffering, α-amylase was diluted each day with 0.1 M phosphate buffer/0.04 M NaCl to a final dilution of 1:1000 and stored at 4 °C. […] The release of heat during the conversion of starch was monitored, and calculations were performed using Microsoft Excel software. The detected thermal power is directly proportional to the enzymatic rate (v0) (eq 1 and 2).[40],[41] […]

COMPOUND	Ki (µM)
Oc1cc(O)c2c(c1)O[C@H](c1ccc(O)c(O)c1)[C@@H](O)C2 [CAT, (+)-Catechin]	447
Oc1cc(O)c2c(c1)O[C@H](c1ccc(O)c(O)c1)[C@H](O)[C@H]2c1c(O)cc(O)c2c1O[C@H](c1ccc(O)c(O)c1)[C@@H](O)C2 [PC B1, procyanidin B1]	216
Oc1cc(O)c2c(c1)O[C@H](c1ccc(O)c(O)c1)[C@H](O)[C@H]2c1c(O)cc(O)c2c1O[C@H](c1ccc(O)c(O)c1)[C@H](O)C2 [PC B2, procyanidin B2]	188
Oc1cc(O)c2c(c1)O[C@H](c1ccc(O)c(O)c1)[C@H](O)[C@H]2c1c(O)cc(O)c2c1O[C@H](c1ccc(O)c(O)c1)[C@H](O)[C@H]2c1c(O)cc(O)c2c1O[C@H](c1ccc(O)c(O)c1)[C@H](O)C2 [PC C1, procyanidin C1]	143
Oc1cc(O)c2c(c1)O[C@H](c1ccc(O)c(O)c1)[C@H](O)C2 [EC, (−)-Epicatechin]	305

----------
Biological target: porcine pancreatic α-amylase (Sus scrofa, UniProt P00690)
Assay: Saturation transfer difference (STD)-NMR interaction study
Format: binding
Details: 10 μM α-amylase, 1 mM ligand, 298 K
Here, each record is paired with measured saturation protein–ligand aliph., corrected by a blank data.
READOUT NAME: saturation protein–ligand aliph., corrected by a blank (%)

MOLECULE	NUMERIC VALUE
Oc1cc(O)c2c(c1)O[C@H](c1ccc(O)c(O)c1)[C@H](O)[C@H]2c1c(O)cc(O)c2c1O[C@H](c1ccc(O)c(O)c1)[C@H](O)C2	6
Oc1cc(O)c2c(c1)O[C@H](c1ccc(O)c(O)c1)[C@H](O)C2 [EC, (−)-Epicatechin]	6
Oc1cc(O)c2c(c1)O[C@H](c1ccc(O)c(O)c1)[C@@H](O)C2 [CAT, (+)-Catechin]	3
Oc1cc(O)c2c(c1)O[C@H](c1ccc(O)c(O)c1)[C@H](O)[C@H]2c1c(O)cc(O)c2c1O[C@H](c1ccc(O)c(O)c1)[C@@H](O)C2	11
Oc1cc(O)c2c(c1)O[C@H](c1ccc(O)c(O)c1)[C@H](O)[C@H]2c1c(O)cc(O)c2c1O[C@H](c1ccc(O)c(O)c1)[C@H](O)[C@H]2c1c(O)cc(O)c2c1O[C@H](c1ccc(O)c(O)c1)[C@H](O)C2	7

----------
Molecular target: porcine pancreatic α-amylase (Sus scrofa)
Test: Saturation transfer difference (STD)-NMR interaction study
Type: binding
Conditions: 10 μM α-amylase, 1 mM ligand, 298 K; head prints 'blank', values are protein–ligand not corrected by a blank
Source text: STD-NMR parameters were optimized based on the Bruker standard pulse sequence stddiffgp19.3 using a protein and ligand blank sample. The irradiation frequency (FQ2), saturation time (D20), saturation pulse selectivity (SPW9), and power of the saturation pulse (P42) were varied to achieve maximum selective protein saturation (S2). The best saturation of the α-amylase, with 60%, was obtained with FQ2 = 0.5 ppm, D20 = 3 s, SPW9 = 35 dB, and P42 = 50 ms. […]
Below: a set of entries, each annotated with reported saturation arom..

MOLECULE	TARGET ENTITY	saturation arom. [%]
Oc1cc(O)c2c(c1)O[C@H](c1ccc(O)c(O)c1)[C@H](O)C2 [EC, (−)-Epicatechin]	porcine pancreatic α-amylase (Sus scrofa)	21
Oc1cc(O)c2c(c1)O[C@H](c1ccc(O)c(O)c1)[C@@H](O)C2 [CAT, (+)-Catechin]	porcine pancreatic α-amylase (Sus scrofa)	13
Oc1cc(O)c2c(c1)O[C@H](c1ccc(O)c(O)c1)[C@H](O)[C@H]2c1c(O)cc(O)c2c1O[C@H](c1ccc(O)c(O)c1)[C@H](O)C2 [PC B2, procyanidin B2]	porcine pancreatic α-amylase (Sus scrofa)	9
Oc1cc(O)c2c(c1)O[C@H](c1ccc(O)c(O)c1)[C@H](O)[C@H]2c1c(O)cc(O)c2c1O[C@H](c1ccc(O)c(O)c1)[C@@H](O)C2 [PC B1, procyanidin B1]	porcine pancreatic α-amylase (Sus scrofa)	14
Oc1cc(O)c2c(c1)O[C@H](c1ccc(O)c(O)c1)[C@H](O)[C@H]2c1c(O)cc(O)c2c1O[C@H](c1ccc(O)c(O)c1)[C@H](O)[C@H]2c1c(O)cc(O)c2c1O[C@H](c1ccc(O)c(O)c1)[C@H](O)C2 [PC C1, procyanidin C1]	porcine pancreatic α-amylase (Sus scrofa)	11

Data credit: paper PMC12007089
